TARGET DESC: PAK6 (human)
ASSAY METHOD TEXT: radiometric filter-binding kinase assay, Kinase HotSpot
TEST SETTINGS: compound 0.5 µM; ATP 10 µM
For each record, write down the corresponding residual activity.
Give just the numeric value; % need not be written.

Exercise: Value wanted: residual activity (PAK6 (human)) of entry O=C1NC(=O)C(c2cn(CCCO)c3ncccc23)=C1c1cnccn1
Solution: 78.2

Exercise: Please provide the recorded residual activity for Cn1cnc2cc3c(Nc4cccc(Br)c4)ncnc3cc21 , tested on PAK6 (human).
Solution: 95

Exercise: What residual activity appears in the records for this compound with PAK6 (human)? O=C1NC(=O)/C(=C\c2ccc3nccnc3c2)S1
Solution: 107

Exercise: Param readout= residual activity; system= PAK6 (human); entry= COc1ccc(CNC(=O)Nc2ncc([N+](=O)[O-])s2)cc1 ; returns value.
Solution: 106

Exercise: Quick check: residual activity on PAK6 (human), item Nc1nnc2[nH]c3ccccc3nc1-2 ?
Solution: 96.3

Exercise: Record O=C1Nc2ccccc2/C1=C1\Nc2ccccc2\C1=N/O : what is its residual activity with PAK6 (human)?
Solution: 94.4

Exercise: Lookup: residual activity / PAK6 (human) / CC(C)c1nn(-c2c(Cl)cccc2Cl)c2nc(Cc3ccc(OCCO)cc3)nc(O)c12
Solution: 102

Exercise: Look up residual activity with PAK6 (human) for this compound: CC(C)[C@H](CO)Nc1nc(Nc2cc(N)cc(Cl)c2)c2ncn(C(C)C)c2n1
Solution: 57.3

Exercise: Give residual activity (PAK6 (human)) of the following compound: Oc1ccc(Nc2nc(-c3ccc(Cl)cc3)cs2)cc1
Solution: 100

Exercise: What reported residual activity corresponds to Cn1nc2c3c(cccc31)C(=O)c1ccccc1-2 on PAK6 (human)?
Solution: 98.6

Exercise: Requested read-out residual activity, target or system PAK6 (human), entry CC(=O)O/N=C1\C(=C2\C(=O)Nc3cc(Br)ccc32)Nc2ccccc21
Solution: 74.8

---

Please go through the items and note down their residual activity.
TARGET DESC: NEK4 (human)
ASSAY METHOD TEXT: radiometric filter-binding kinase assay, Kinase HotSpot
TEST SETTINGS: compound 0.5 µM; ATP 10 µM
Hi! Could you send only the number? It should be in %, unit omitted.

Exercise: Give its residual activity value. Item: CC(C)[C@H](CO)Nc1nc(Nc2cc(N)cc(Cl)c2)c2ncn(C(C)C)c2n1
Solution: 80.2

Exercise: Entry Cn1cnc2cc3c(Nc4cccc(Br)c4)ncnc3cc21 has what residual activity?
Solution: 96.8

Exercise: Give its residual activity value. Item: COc1ccc(CNC(=O)Nc2ncc([N+](=O)[O-])s2)cc1
Solution: 91

Exercise: Would you kindly share the measured residual activity for O=C(O)/C=C/c1cc(Br)c(Br)c(Br)c1Br ?
Solution: 54.6

Exercise: Query: residual activity; subject: O=C1NC(=O)C(c2cn(CCCO)c3ncccc23)=C1c1cnccn1
Solution: 85.1

Exercise: GET /values?readout=residual activity&item= COc1cc2ncnc(N3CCN(C(=O)Nc4ccc(Oc5ccccc5)cc4)CC3)c2cc1OC
Solution: 94.4

Exercise: Could you share which residual activity value was measured for CCn1cnc2c(Nc3cccc(Cl)c3)nc(N[C@@H]3CCCC[C@@H]3N)nc21 ?
Solution: 96.8

Exercise: residual activity for Cn1sc(=O)n(Cc2ccccc2)c1=O ?
Solution: 98

Exercise: Record request: residual activity value, item Nc1nccc(-c2c(-c3ccc(F)cc3)ncn2C2CCNCC2)n1
Solution: 99.5

Exercise: What value of measured residual activity is listed for O=C1Nc2ccccc2/C1=C1/Nc2ccccc2/C1=N\OCCC(O)CO (configuration not stated) ?
Solution: 83.9

Exercise: Item Cc1nc2cc3nc(-c4cccs4)cnc3cc2n1C has what recorded residual activity?
Solution: 95.2

Exercise: Which residual activity value is on record for CCN(CC)CCCCN1c2ccccc2Oc2ccc(Cl)cc21 ?
Solution: 110

Exercise: So what's the measured residual activity for this one? O=C1NC(=O)C(c2c[nH]c3ccccc23)=C1c1c[nH]c2ccccc12
Solution: 96.4

Exercise: Fill blank: measured residual activity of the compound O=C1Nc2ccccc2/C1=C1\Nc2ccccc2\C1=N/O is ____.
Solution: 95

Exercise: State the recorded residual activity for this entry: CC(C)c1nn(-c2c(Cl)cccc2Cl)c2nc(Cc3ccc(OCCO)cc3)nc(O)c12
Solution: 96.3

Exercise: What measured residual activity goes with CN(C)C[C@H]1CCn2c(c(C3=C(c4cn(C)c5ccccc45)C(=O)NC3=O)c3ccccc32)C1 ?
Solution: 96.7

Exercise: Which residual activity reading was recorded for the compound CC(=O)O/N=C1\C(=C2\C(=O)Nc3cc(Br)ccc32)Nc2ccccc21 ?
Solution: 85.6

Exercise: Looking for the measured residual activity of Oc1ccc(Nc2nc(-c3ccc(Cl)cc3)cs2)cc1 , can you help?
Solution: 104

Exercise: # get_value(readout='residual activity', item= O=C(Nc1cccc(Nc2cc(Nc3cccc(C(F)(F)F)c3)ncn2)c1)C1CC1 )
Solution: 90.6

Exercise: For the compound shown here, CN([C@@H](Cc1ccc(OS(=O)(=O)c2cccc3cnccc23)cc1)C(=O)N1CCN(c2ccccc2)CC1)S(=O)(=O)c1cccc2cnccc12 , give the reported residual activity.
Solution: 99.5

Exercise: residual activity lookup needed for Cn1nc2c3c(cccc31)C(=O)c1ccccc1-2 , thanks.
Solution: 89.8

Exercise: Consider the compound shown here: COc1cc2ncc(-c3ccccc3)nc2cc1OC What is its recorded residual activity?
Solution: 101

Reference source for all entries: the kinase profiling compilation of Christmann-Franck et al. (2016)
